# target_of_assay: Bcl-xL (Homo sapiens, UniProt Q07817)
# Sequence (Q07817 whole entry): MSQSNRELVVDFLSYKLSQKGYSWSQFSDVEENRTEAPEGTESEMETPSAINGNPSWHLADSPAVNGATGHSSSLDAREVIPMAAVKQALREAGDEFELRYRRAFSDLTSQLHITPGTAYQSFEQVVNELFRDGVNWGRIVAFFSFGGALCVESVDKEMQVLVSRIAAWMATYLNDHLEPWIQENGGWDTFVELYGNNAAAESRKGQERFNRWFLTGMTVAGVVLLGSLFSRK
# assay_overview: Time Resolved-Fluorescence Resonance Energy Transfer (TR-FRET) binding assay, competition with probe F-Bak
# condition_description: without HS; read-out: Bcl-xL Binding Ki
Each entry below carries its reported Ki.
Please give a number only; it is taken to be in nM.

Sample answers from the record:
{"compound": "Cc1c(-c2ccc(N3CCc4cccc(C(=O)Nc5nc6ccccc6s5)c4C3)nc2C(=O)O)cnn1CC12CC3(C)CC(C)(C1)CC(OCCNC[C@H](O)[C@H](O)[C@@H](O)[C@H](O)[C@H](O)CO)(C3)C2 [Example 1.82]", "Ki (nM)": 0.023}
{"compound": "Cc1c(-c2ccc(N3CCc4cccc(C(=O)Nc5nc6ncccc6s5)c4C3)nc2C(=O)O)cnn1CC12CC3(C)CC(C)(C1)CC(OCCNCCCP(=O)(O)O)(C3)C2 [Example 1.39]", "Ki (nM)": 0.018}
{"compound": "Cc1c(-c2ccc(N3CCc4cccc(C(=O)Nc5nc6ccccc6s5)c4C3)nc2C(=O)O)cnn1CC12CC3(C)CC(C)(CC(CCCNCCS(=O)(=O)O)(C3)C1)C2 [Example 1.91]", "Ki (nM)": 0.064}

Now let's try a different one.
Requested read-out: Ki. Entry: Cc1c(-c2ccc(N3CCc4cccc(C(=O)Nc5nc6ccccc6s5)c4C3)nc2C(=O)O)cnn1CC12CC3(C)CC(C)(C1)CC(OCCNCCC(=O)NC(CO)(CO)CO)(C3)C2 [Example 1.84]
0.069

----------
# target_of_assay: Bcl-xL (Homo sapiens, UniProt Q07817)
# assay_overview: Time Resolved-Fluorescence Resonance Energy Transfer (TR-FRET) binding assay, competition with probe F-Bak
# condition_description: in the presence of 1% HS; read-out: Bcl-xL Binding Ki (nM, 1% HS)
Each entry below carries its reported Ki.
Please give a number only; it is taken to be in nM.

{"compound": "Cc1c(-c2ccc(N3CCc4cccc(C(=O)Nc5nc6ccccc6s5)c4C3)nc2C(=O)O)cnn1CC12CC3(C)CC(C)(C1)CC(OCCNCCc1cn([C@@H]4O[C@H](C(=O)O)[C@@H](O)[C@H](O)[C@H]4O)nn1)(C3)C2 [Example 1.9]", "target_of_assay": "Bcl-xL (Homo sapiens, UniProt Q07817)", "unit_annotation": "nM", "Ki": 0.047}
{"compound": "Cc1c(-c2ccc(N3CCc4cccc(C(=O)Nc5nc6ccccc6s5)c4C3)nc2C(=O)O)cnn1CC12CC3(C)CC(C)(C1)CC(OCCNCCS(=O)(=O)N[C@H]1C(O)O[C@H](CO)[C@@H](O)[C@@H]1O)(C3)C2 (some centres unmarked) [Example 1.3]", "target_of_assay": "Bcl-xL (Homo sapiens, UniProt Q07817)", "unit_annotation": "nM", "Ki": 0.18}
{"compound": "Cc1c(-c2ccc(N3CCc4cccc(C(=O)Nc5nc6ncccc6s5)c4C3)nc2C(=O)O)cnn1CC12CC3(C)CC(C)(C1)CC(OCCN(CCCP(=O)(O)O)C1CCNCC1)(C3)C2 [Example 1.50]", "target_of_assay": "Bcl-xL (Homo sapiens, UniProt Q07817)", "unit_annotation": "nM", "Ki": 0.051}
{"compound": "Cc1c(-c2ccc(N3CCc4cccc(C(=O)Nc5nc6ccccc6s5)c4C3)nc2C(=O)O)cnn1CC12CC3(C)CC(C)(C1)CC(OCCNCCC(=O)O)(C3)C2 [Example 1.25]", "target_of_assay": "Bcl-xL (Homo sapiens, UniProt Q07817)", "unit_annotation": "nM", "Ki": 0.083}

Requested read-out: Ki. Entry: CNCCOC12CC3(C)CC(C)(CC(Cn4ncc(-c5ccc(N6CCc7c(OCCN)ccc(C(=O)Nc8nc9ccccc9s8)c7C6)nc5C(=O)O)c4C)(C3)C1)C2 [Example 1.34]
0.031
